# PROCEDURE_SUMMARY: Estimation of pK° values of mono and difluoro methanediphosphonic acid from 31P chemical shift data
# Assay type: physicochemical
# TEST_SETTINGS: calculated from 31P chemical shift data, read-out: pK° 3
Listing of recorded pKa by entry.
# output: bare number, no unit

{"COMPOUND": "O=P(O)(O)C(F)P(=O)(O)O [monofluoro MDPA, Fluoro Methanediphosphonic Acid]", "pKa": 6.62}

Now for the compound whose pKa we want.
Inquiry: Read the entry O=P(O)(O)C(F)(F)P(=O)(O)O [difluoro MDPA, Difluoro Methanediphosphonic Acid] and write its reported pKa.
Reply text: 6.08

###

# PROCEDURE_SUMMARY: Estimation of pK° values of mono and difluoro methanediphosphonic acid from 31P chemical shift data
# Format: physicochemical
# TEST_SETTINGS: calculated from 31P chemical shift data, read-out: pK° 2
pKa listing for selected compounds.

Inquiry: Item O=P(O)(O)C(F)P(=O)(O)O : provide pKa
Reply text: 2.78

Inquiry: Please give the documented pKa of O=P(O)(O)C(F)(F)P(=O)(O)O
Reply text: 2.57

###

# PROCEDURE_SUMMARY: Estimation of pK° values of mono and difluoro methanediphosphonic acid from 31P chemical shift data
# Type: physicochemical
# TEST_SETTINGS: calculated from 31P chemical shift data, read-out: pK° 4
ATTRIBUTE_MEASURED: pKa

{"CHEMICAL_STRING": "O=P(O)(O)C(F)P(=O)(O)O", "OBSERVED_MEASUREMENT": 10.1}

Let us examine a further case.
Inquiry: Tell me its pKa given O=P(O)(O)C(F)(F)P(=O)(O)O as the entry.
Reply text: 9.07
